A collection of compounds and their measured inhibition at 10 µM
Tested on: OVCAR-5
Assay: NCI 60 cell one-dose screening (SRB)
Format: cell-based
Details: Homo sapiens; OVCAR-5, Ovarian Cancer; single dose 10 µM, 48 h; read-out: Percentage of cellular growth inhibition
The figure you give is taken to be in %; do not add the unit.

| test.smiles | readout.number |
| --- | --- |
| CC(=O)c1sc(Nc2cccc(Nc3nc(C)c(C(C)=O)s3)c2)nc1C | 16.5 |
| S=C(Nc1ccccc1)Nc1cccc(NC(=S)Nc2ccccc2)c1 | -4.9 |
| c1ccc(-c2csc(Nc3cccc(Nc4nc(-c5ccccc5)cs4)c3)n2)cc1 | 35.5 |
| NC(=S)Nc1cccc(NC(N)=S)c1 | -3.6 |
| Clc1ccc(-c2csc(Nc3cccc(Nc4nc(-c5ccc(Cl)cc5)cs4)c3)n2)cc1 | 9.6 |
| Fc1ccc(-c2csc(Nc3cccc(Nc4nc(-c5ccc(F)cc5)cs4)c3)n2)cc1 | 34.5 |
| Clc1ccc(-c2cs/c(=N\c3ccccc3)n2-c2cccc(-n3c(-c4ccc(Cl)cc4)cs/c3=N\c3ccccc3)c2)cc1 | -2.6 |

Documented inhibition at 10 µM of "Fc1ccc(-c2cs/c(=N\c3ccccc3)n2-c2cccc(-n3c(-c4ccc(F)cc4)cs/c3=N\c3ccccc3)c2)cc1" : 14

====

System: NCI-H226
Experiment: NCI 60 cell one-dose screening (SRB)
Type: cell-based
Conditions: Homo sapiens; NCI-H226, Non-Small Cell Lung Cancer; single dose 10 µM, 48 h; read-out: Percentage of cellular growth inhibition
attribute.measured: inhibition at 10 µM (%)
Provide only the numeric value, understood in %.

Consider the worked cases shown below.
| test.smiles | inhibition at 10 µM, % |
| --- | --- |
| Cc1nc(Nc2cccc(Nc3nc(C)c(N=Nc4ccccc4)s3)c2)sc1N=Nc1ccccc1 | 33 |
| Clc1ccc(-c2cs/c(=N\c3ccccc3)n2-c2cccc(-n3c(-c4ccc(Cl)cc4)cs/c3=N\c3ccccc3)c2)cc1 | 16.9 |
| S=C(Nc1ccccc1)Nc1cccc(NC(=S)Nc2ccccc2)c1 | -6.2 |
| Fc1ccc(-c2cs/c(=N\c3ccccc3)n2-c2cccc(-n3c(-c4ccc(F)cc4)cs/c3=N\c3ccccc3)c2)cc1 | 23.5 |
| c1ccc(-c2csc(Nc3cccc(Nc4nc(-c5ccccc5)cs4)c3)n2)cc1 | 33.8 |

inhibition at 10 µM recorded for this compound, "NC(=S)Nc1cccc(NC(N)=S)c1" , is 1.9

Measured inhibition at 10 µM of "CCOC(=O)c1sc(Nc2cccc(Nc3nc(C)c(C(=O)OCC)s3)c2)nc1C" : 15

The recorded inhibition at 10 µM for "Clc1ccc(-c2csc(Nc3cccc(Nc4nc(-c5ccc(Cl)cc5)cs4)c3)n2)cc1" is 27.2

# inhibition at 10 µM of "Fc1ccc(-c2csc(Nc3cccc(Nc4nc(-c5ccc(F)cc5)cs4)c3)n2)cc1" = 48.5

Value of inhibition at 10 µM reported for the compound "c1ccc(/N=c2\scc(-c3ccccc3)n2-c2cccc(-n3c(-c4ccccc4)cs/c3=N\c3ccccc3)c2)cc1" is 17

Record "CC(=O)c1sc(Nc2cccc(Nc3nc(C)c(C(C)=O)s3)c2)nc1C" , field inhibition at 10 µM: 34.6

The reported value for "Cc1csc(Nc2cccc(Nc3nc(C)cs3)c2)n1" in terms of inhibition at 10 µM is 24.2

====

List of inhibition at 10 µM values.
Test system: IGROV1
Assay: NCI 60 cell one-dose screening (SRB)
Assay type: cell-based
Conditions: Homo sapiens, IGROV-1; IGROV1, Ovarian Cancer; single dose 10 µM, 48 h; read-out: Percentage of cellular growth inhibition
Just the number in %, nothing appended.

Answered examples (2):
| test.smiles | assayed.system | inhibition at 10 µM, % |
| --- | --- | --- |
| c1ccc(/N=c2\scc(-c3ccccc3)n2-c2cccc(-n3c(-c4ccccc4)cs/c3=N\c3ccccc3)c2)cc1 | IGROV1 | -6.1 |
| Clc1ccc(-c2cs/c(=N\c3ccccc3)n2-c2cccc(-n3c(-c4ccc(Cl)cc4)cs/c3=N\c3ccccc3)c2)cc1 | IGROV1 | -0.4 |

# inhibition at 10 µM measured on IGROV1 for item "CCOC(=O)c1sc(Nc2cccc(Nc3nc(C)c(C(=O)OCC)s3)c2)nc1C" = 23.4

Query "Clc1ccc(-c2csc(Nc3cccc(Nc4nc(-c5ccc(Cl)cc5)cs4)c3)n2)cc1" on IGROV1; inhibition at 10 µM returned: 9

// returns inhibition at 10 µM for "Fc1ccc(-c2cs/c(=N\c3ccccc3)n2-c2cccc(-n3c(-c4ccc(F)cc4)cs/c3=N\c3ccccc3)c2)cc1" with IGROV1; value = 12.9

Entry "Fc1ccc(-c2csc(Nc3cccc(Nc4nc(-c5ccc(F)cc5)cs4)c3)n2)cc1" : inhibition at 10 µM on IGROV1 = 58.2

Bench note, IGROV1: entry "NC(=S)Nc1cccc(NC(N)=S)c1" , its inhibition at 10 µM = 2.5

Entry "Cc1csc(Nc2cccc(Nc3nc(C)cs3)c2)n1" , IGROV1 data, inhibition at 10 µM value: 7.9

====

Tested on: SNB-19
Test: NCI 60 cell one-dose screening (SRB)
Type: cell-based
Details: Homo sapiens; SNB-19, CNS Cancer; single dose 10 µM, 48 h; read-out: Percentage of cellular growth inhibition
Each record here notes measured inhibition at 10 µM.
Note: unit % is implicit; provide only the numeric part.

Example results:
| test.smiles | inhibition at 10 µM, % |
| --- | --- |
| S=C(Nc1ccccc1)Nc1cccc(NC(=S)Nc2ccccc2)c1 | 3.4 |
| c1ccc(-c2csc(Nc3cccc(Nc4nc(-c5ccccc5)cs4)c3)n2)cc1 | 42 |
| c1ccc(/N=c2\scc(-c3ccccc3)n2-c2cccc(-n3c(-c4ccccc4)cs/c3=N\c3ccccc3)c2)cc1 | -5.9 |
| Fc1ccc(-c2csc(Nc3cccc(Nc4nc(-c5ccc(F)cc5)cs4)c3)n2)cc1 | 29.8 |
| Clc1ccc(-c2csc(Nc3cccc(Nc4nc(-c5ccc(Cl)cc5)cs4)c3)n2)cc1 | 11.5 |
| NC(=S)Nc1cccc(NC(N)=S)c1 | 11.7 |
| CC(=O)c1sc(Nc2cccc(Nc3nc(C)c(C(C)=O)s3)c2)nc1C | 9.1 |
| Clc1ccc(-c2cs/c(=N\c3ccccc3)n2-c2cccc(-n3c(-c4ccc(Cl)cc4)cs/c3=N\c3ccccc3)c2)cc1 | 3.8 |
| Cc1nc(Nc2cccc(Nc3nc(C)c(N=Nc4ccccc4)s3)c2)sc1N=Nc1ccccc1 | 42.6 |
| Fc1ccc(-c2cs/c(=N\c3ccccc3)n2-c2cccc(-n3c(-c4ccc(F)cc4)cs/c3=N\c3ccccc3)c2)cc1 | 5.6 |

Entry "Cc1csc(Nc2cccc(Nc3nc(C)cs3)c2)n1" ; inhibition at 10 µM = 1

Just so you know, measured inhibition at 10 µM for "CCOC(=O)c1sc(Nc2cccc(Nc3nc(C)c(C(=O)OCC)s3)c2)nc1C" came out at 17.7

====

Tested on: SF-268
Assay: NCI 60 cell one-dose screening (SRB)
Assay type: cell-based
Details: Homo sapiens; SF-268, CNS Cancer; single dose 10 µM, 48 h; read-out: Percentage of cellular growth inhibition
attribute.measured: inhibition at 10 µM (%)
Provide the reading as a plain figure in %.

Example results:
| test.smiles | assayed.system | unit.descriptor | inhibition at 10 µM |
| --- | --- | --- | --- |
| NC(=S)Nc1cccc(NC(N)=S)c1 | SF-268 | % | 9.1 |
| Cc1csc(Nc2cccc(Nc3nc(C)cs3)c2)n1 | SF-268 | % | 1.4 |
| CCOC(=O)c1sc(Nc2cccc(Nc3nc(C)c(C(=O)OCC)s3)c2)nc1C | SF-268 | % | 14.8 |

response.value for "Clc1ccc(-c2csc(Nc3cccc(Nc4nc(-c5ccc(Cl)cc5)cs4)c3)n2)cc1" (field: inhibition at 10 µM) = 22.6

// field: inhibition at 10 µM; key: "Clc1ccc(-c2cs/c(=N\c3ccccc3)n2-c2cccc(-n3c(-c4ccc(Cl)cc4)cs/c3=N\c3ccccc3)c2)cc1" ; value = 12.1

For this molecule ( "Cc1nc(Nc2cccc(Nc3nc(C)c(N=Nc4ccccc4)s3)c2)sc1N=Nc1ccccc1" ), measured inhibition at 10 µM is 42.4

Kindly note the recorded inhibition at 10 µM for "CC(=O)c1sc(Nc2cccc(Nc3nc(C)c(C(C)=O)s3)c2)nc1C" , which is 28.9

Briefly, inhibition at 10 µM measured for "Fc1ccc(-c2csc(Nc3cccc(Nc4nc(-c5ccc(F)cc5)cs4)c3)n2)cc1" : 42.1

Consider "c1ccc(-c2csc(Nc3cccc(Nc4nc(-c5ccccc5)cs4)c3)n2)cc1" . Its measured inhibition at 10 µM is 59.4

====

System: MOLT-4
Assay: NCI 60 cell one-dose screening (SRB)
Assay type: cell-based
Conditions: Homo sapiens; MOLT-4, Leukemia; single dose 10 µM, 48 h; read-out: Percentage of cellular growth inhibition
The entries below are paired with their reported inhibition at 10 µM.
Numeric answer only, unit % assumed.

Use the examples below as a reference point.
| compound | assayed.system | inhibition at 10 µM / % |
| --- | --- | --- |
| NC(=S)Nc1cccc(NC(N)=S)c1 [compound 2, 1,1′-(1,3-phenylene)bis(thiourea)] | MOLT-4 | 10.3 |
| c1ccc(-c2csc(Nc3cccc(Nc4nc(-c5ccccc5)cs4)c3)n2)cc1 [6a] | MOLT-4 | 86.3 |

Reported inhibition at 10 µM for c1ccc(/N=c2\scc(-c3ccccc3)n2-c2cccc(-n3c(-c4ccccc4)cs/c3=N\c3ccccc3)c2)cc1 [8a] was -5.5

What the record says about CC(=O)c1sc(Nc2cccc(Nc3nc(C)c(C(C)=O)s3)c2)nc1C [3b] : inhibition at 10 µM is 61.7
